# System: PC-3
# procedureText: NCI tumour cell line growth inhibition, 48 h
Activity calls are given as the source filed them. No stated cut-off is given here; in the data, active = GI50 up to about 1.1 µM and inactive = higher.
Entry note: the call must match one of active, inactive

compound=COc1ccc2nc3c(C)cc4ccccc4n3c2c1 label=inactive

Incoming: Name the outcome recorded for Cc1ccccc1S(=O)(=O)OC1NS(=O)(=O)c2ccccc21 (centres undefined) in the assay.
Outgoing: inactive

Incoming: Name the outcome recorded for `O=C(N/N=C/c1ccco1)c1cc(I)cc(I)c1O` in the assay.
Outgoing: inactive

Incoming: Name the outcome recorded for `Clc1cc(N/N=C(\c2ccccc2)c2ccccn2)ncn1` in the assay.
Outgoing: active

Incoming: Name the outcome recorded for `O=c1[nH]c(=O)n(COC(CO)CO)cc1-c1ccccc1` in the assay.
Outgoing: inactive

Incoming: Name the outcome recorded for COC(=O)CCC(NC(=O)OC(C)(C)C)C(=O)NC(Cc1ccc(NC(=O)CCCC(C)=O)cc1)C(=O)NC(CCC(=O)OC)C(=O)OC (centres undefined) in the assay.
Outgoing: inactive

Incoming: Name the outcome recorded for `COC(=O)c1c2c(cc3c1CC1(Cc4ccccc4C1)C3)CCC2` in the assay.
Outgoing: inactive
